system name: hGLP-2 receptor (Homo sapiens)
Construct: expressed in transfected cells; host or cells: BHK-21 (C13) cells, transient transfection with Lipofectamine 2000
Sequence (O95838 whole entry): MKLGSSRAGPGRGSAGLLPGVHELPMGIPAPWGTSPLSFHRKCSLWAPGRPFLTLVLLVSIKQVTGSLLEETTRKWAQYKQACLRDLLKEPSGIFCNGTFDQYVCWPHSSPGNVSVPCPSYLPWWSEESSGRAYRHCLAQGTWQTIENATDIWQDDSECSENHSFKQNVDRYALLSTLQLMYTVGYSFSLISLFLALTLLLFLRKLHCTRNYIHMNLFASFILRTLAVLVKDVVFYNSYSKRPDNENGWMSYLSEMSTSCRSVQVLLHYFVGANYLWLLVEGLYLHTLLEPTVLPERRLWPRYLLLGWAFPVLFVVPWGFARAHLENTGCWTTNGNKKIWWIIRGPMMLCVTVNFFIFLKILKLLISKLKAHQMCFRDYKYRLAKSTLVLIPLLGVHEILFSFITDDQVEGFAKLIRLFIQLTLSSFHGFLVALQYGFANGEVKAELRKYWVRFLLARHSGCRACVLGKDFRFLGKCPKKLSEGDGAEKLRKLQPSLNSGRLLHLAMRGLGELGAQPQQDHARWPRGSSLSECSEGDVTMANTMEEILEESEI
test details: In vitro screening for agonism on the GLP-2 receptor recombinantly expressed in BHK-21 cells (CRE-luciferase reporter)
Type: cell-based
cond: agonism on GLP-2 receptor in BHK-21 cells; read-out: IC 50 (FIG. 5)
experimental readout: EC50 (pM)
Dear colleague, please return just the value in pM, with no unit written.

Given H-HGEGSFSDELATILEALAAADFIAWLIATKITD-NH2 [ZP2264] , state its recorded EC50.
3.55

* * *

Documented Colon-BW, compared to 1559 in % across a set of substances
Tested on: male C57BL mice
test details: In vivo stimulation of intestinal growth, 200 nmol/kg (Example 11)
cond: 200 nmol/kg s.c. once daily for 3 days
Dear colleague, please return just the value in %, with no unit written.

Observe how each entry below is paired with its result.
H-HGEGSFSDELATILESLAASDFISWLISTKITDKKKKKK-NH2 [ZP2386] | 111
H-HGEGSFSDELLTILELLAASDFISWLISTKITDKKKKKK-NH2 [ZP2394] | 96
H-HGEGSFSDELLTILELLAALDFILWLILTKITDKKKKKK-NH2 [ZP2424] | 98
H-HGEGSFSDELFTILEFLAASDFISWLISTKITDKKKKKK-NH2 [ZP2396] | 102

Now examine the next entry.
Given H-HGEGSFSDELLTILELLAASDFISWLISTKITD-NH2 [ZP2400] , state its recorded Colon-BW, compared to 1559 in %.
106
